Please provide measured Kd for the entries that follow.
target: BRD4 bromodomains (Homo sapiens); construct: fused on or other part: T7 phage capsid protein (phage-display fusion; the phage DNA is read out by qPCR); experiment: BROMOscan bromodomain competition binding assay (DiscoveRx); conditions: Kd from 11 compound concentrations ranging from 0 to 10 μM, read-out: BROMOscan Relative Activity

For reference, reported Kd for "Cc1noc(C)c1-c1ccc2nc(C(=O)NCc3ccc(Cl)cc3)nc(NCc3cccc(Cl)c3)c2c1" stands at > 5000 nM

For reference, reported Kd for "Cc1noc(C)c1-c1ccc2nc(N3CCN(C(=O)CO)CC3)nc(NCc3cncc(Cl)c3)c2c1" stands at < 500 nM

For reference, reported Kd for "Cc1noc(C)c1-c1ccc2nc(C(=O)NC3CN(C)C3)nc(NC3(c4cccc(Cl)c4)CC3)c2c1" stands at < 500 nM

For reference, reported Kd for "Cc1nn(C)c(C)c1CNC(=O)c1nc(NCc2cccc(Cl)c2)c2cc(-c3c(C)noc3C)ccc2n1" stands at < 500 nM

For reference, reported Kd for "Cc1noc(C)c1-c1ccc2nc(N3CCN(CCCN(C)C)CC3)nc(NCc3cccc(Cl)c3)c2c1" stands at < 500 nM

For reference, reported Kd for "Cc1noc(C)c1-c1ccc2nc(N3CCN(CCN(C)C)CC3)nc(NCc3ccco3)c2c1" stands at 500 to 5000 nM

For reference, reported Kd for "Cc1noc(C)c1-c1ccc2nc(C(=O)NCc3nccn3C)nc(NCc3cccc(Cl)c3)c2c1" stands at < 500 nM

###

biological target: BRD4 bromodomains (Homo sapiens); construct: fused on or other part: T7 phage capsid protein (phage-display fusion; the phage DNA is read out by qPCR); assay: BROMOscan bromodomain competition binding assay (DiscoveRx); details: Kd from 11 compound concentrations ranging from 0 to 10 μM, read-out: BROMOscan Relative Activity
measured.parameter: Kd

For reference, reported Kd for Cc1noc(C)c1-c1ccc2nccc(NCc3cccc(Cl)c3)c2c1 [Example 3] stands at 500 to 5000 nM

For reference, reported Kd for Cc1noc(C)c1-c1ccc2nc(N3CCc4ncn(C)c4C3)nc(N3CCOC[C@@H]3c3ccccc3)c2c1 [Example 311] stands at < 500 nM

For reference, reported Kd for CN(C)CCCN1CCN(c2nc(NCc3cccc(Cl)c3)c3cc(-c4ccc(=O)n(C)c4)ccc3n2)CC1 [Example 123] stands at < 500 nM

For reference, reported Kd for CC(=O)N1CCN(c2nc(NC3(c4cccc(Cl)c4)CC3)c3cc(-c4c(C)noc4C)ccc3n2)CC1 [Example 185] stands at < 500 nM

For reference, reported Kd for Cc1noc(C)c1-c1ccc2nc(-c3cnn(CC(C)(C)O)c3)nc(N(Cc3cccc(Cl)c3)C3CC3)c2c1 [Example 312] stands at < 500 nM

For reference, reported Kd for Cc1n[nH]c(C)c1CNC(=O)c1nc(NCc2cccc(Cl)c2)c2cc(-c3c(C)noc3C)ccc2n1 [Example 257] stands at < 500 nM

For reference, reported Kd for Cc1noc(C)c1-c1ccc2nc(NCCN3CCN(C)CC3)nc(NCc3cccc(Cl)c3)c2c1 [Example 11] stands at < 500 nM

For reference, reported Kd for Cc1noc(C)c1-c1ccc2nc(C(=O)NC3CN(C)C3)nc(NCc3cccc(Cl)c3)c2c1 [Example 198] stands at < 500 nM

For reference, reported Kd for Cc1noc(C)c1-c1ccc2nc(C(=O)NC3CN(C)C3)nc(N3CCOC[C@@H]3c3ccccc3)c2c1 [Example 277] stands at < 500 nM

For reference, reported Kd for Cc1noc(C)c1-c1ccc2nc(Oc3ccc(Cl)cc3)nc(NCc3cccc(Cl)c3)c2c1 [Example 169] stands at > 5000 nM

For reference, reported Kd for Cc1nc(NCc2cccc(Cl)c2)c2cc(-c3c(C)noc3C)ccc2n1 [Example 9] stands at < 500 nM

For reference, reported Kd for Cc1noc(C)c1-c1ccc2nc(N(C)CCN(C)C)nc(NCc3cccc(Cl)c3)c2c1 [Example 22] stands at < 500 nM

For reference, reported Kd for Cc1noc(C)c1-c1ccc2nc(N3CCN(CC(C)(C)O)CC3)nc(NCc3cccc(Cl)c3)c2c1 [Example 137] stands at 500 to 5000 nM

For reference, reported Kd for Cc1noc(C)c1-c1ccc2nc(N3CCN(C(=O)c4ccncc4)CC3)nc(NCc3cccc(Cl)c3)c2c1 [Example 29] stands at < 500 nM

For reference, reported Kd for Cc1noc(C)c1-c1ccc2nc(N3CCN(CCN(C)C)CC3)nc(NCc3ccccc3F)c2c1 [Example 76] stands at < 500 nM

For reference, reported Kd for Cc1noc(C)c1-c1ccc2nc(C(=O)N3CCC4(CC3)CC(O)C4)nc(N3CCOC[C@@H]3c3ccccc3)c2c1 [Example 316] stands at 500 to 5000 nM

Taken from patent US11028079B2.
